biological target: Human Plasma Kallikrein (Homo sapiens, UniProt P03952); experiment: Inhibitory effect on ester-hydrolyzing activity of human plasma kallikrein (TAMe substrate); assay type: biochemical; settings: read-out: Kallikrein percent inhibition
Sequence (P03952 391-638 limits assumed): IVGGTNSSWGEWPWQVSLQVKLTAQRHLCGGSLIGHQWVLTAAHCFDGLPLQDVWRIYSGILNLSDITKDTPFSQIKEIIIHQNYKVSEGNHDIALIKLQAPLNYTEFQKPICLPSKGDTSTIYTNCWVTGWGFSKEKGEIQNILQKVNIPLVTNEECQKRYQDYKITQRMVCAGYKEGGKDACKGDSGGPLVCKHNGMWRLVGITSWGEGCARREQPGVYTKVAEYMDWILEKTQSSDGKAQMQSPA
Sequence (P03952 20-390 partner limits assumed): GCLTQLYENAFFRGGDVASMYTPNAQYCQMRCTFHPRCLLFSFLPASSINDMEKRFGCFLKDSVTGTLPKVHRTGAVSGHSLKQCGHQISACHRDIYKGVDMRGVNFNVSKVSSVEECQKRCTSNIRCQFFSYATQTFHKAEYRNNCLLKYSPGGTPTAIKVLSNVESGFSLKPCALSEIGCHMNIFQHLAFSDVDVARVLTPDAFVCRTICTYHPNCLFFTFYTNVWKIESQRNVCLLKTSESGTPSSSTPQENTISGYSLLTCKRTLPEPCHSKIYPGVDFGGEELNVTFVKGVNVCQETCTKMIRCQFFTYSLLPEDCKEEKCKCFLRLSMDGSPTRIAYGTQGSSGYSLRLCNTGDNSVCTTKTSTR
inhibition at 1000 µM: recorded values
Lab book: enter the figure in %, no units written.

// below: answered compounds
Enquiry: Fill blank: measured inhibition at 1000 µM of the compound COc1cccc(OC(=O)C2CCCc3ccc(NC(=N)N)cc32)c1 (centres unmarked) is ____.
Return: 36.7

Enquiry: Do the same for CCCCOc1ccc(OC(=O)C2CCCc3c(NC(=N)N)cccc32)cc1 (centres unmarked) please
Return: 29.3

Enquiry: Further, for CCOC(=O)COC(=O)CCc1ccc(OC(=O)C2CCCc3ccc(NC(=N)N)cc32)cc1 (centres unmarked) ?
Return: 48.5

--- query ---
Enquiry: For NC(=O)COC(=O)c1ccc(OC(=O)C2CCCc3ccc(N)cc32)cc1 (centres unmarked) , what is its reported inhibition at 1000 µM?
Return: 17.2

###

Entries and their % protective values follow.
system: thrombin; assay: Inhibitory activity on thrombus formation: protection from lethal thrombin injection in mice; type: in vivo, mice (ddY strain); conditions: 1 mg/kg i.p., 10 minutes before thrombin 300 NIH units/kg i.v.; No. 91 in 2.5% gum arabic
Please state the figure in %; there is no need to write the unit.

Solved entries:
Enquiry: What does the data say about its % protective? Entry: N=C(N)c1ccc(CC(=O)C(=O)O)cc1 [APPA-Na, sodium p-amidinophenyl pyruvate, reference compound]
Return: 0

Enquiry: Moving on to the next molecule: COC(=O)c1ccc(OC(=O)C2CCCc3c(NC(=N)N)cccc32)cc1 (stereo not drawn) [Compound 118]
Return: 20

Enquiry: COc1ccc(OC(=O)C2CCCc3ccc(NC(=N)N)cc32)cc1.Cl (stereo not drawn) [Compound 138] ?
Return: 0

Enquiry: CCOC(=O)c1ccc(OC(=O)C2CCCc3ccc(NC(=N)N)cc32)cc1 (stereo not drawn) [Compound 148] ?
Return: 0

Enquiry: What would you report for Cl.N=C(N)Nc1ccc2c(c1)C(C(=O)Oc1ccccc1)CCC2 (stereo not drawn) [Compound 134] ?
Return: 0

// below: % protective requested for another molecule
Enquiry: # % protective lookup, item COC(=O)c1ccc(OC(=O)C2CCCc3ccc(N)cc32)cc1 (stereo not drawn) [Compound 91]
Return: 0

###

target: Trypsin (Bos taurus, UniProt P00760); assay: Inhibitory effect on ester-hydrolyzing activity of trypsin (TAMe substrate); assay type: biochemical; details: at 10^-3 M; in vitro, TAMe; read-out: Trypsin percent inhibition
Sequence (P00760 24-246): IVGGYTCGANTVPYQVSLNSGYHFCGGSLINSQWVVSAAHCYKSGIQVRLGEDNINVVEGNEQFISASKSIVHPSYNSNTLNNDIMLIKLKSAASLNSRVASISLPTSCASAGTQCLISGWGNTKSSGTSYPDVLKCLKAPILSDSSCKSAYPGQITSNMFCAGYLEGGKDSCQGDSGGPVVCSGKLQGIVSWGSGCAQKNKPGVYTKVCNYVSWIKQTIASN
Measured inhibition at 1000 µM values are reported for all entries that follow.
Provide only the numeric value, understood in %.

Here is how some compounds turned out for inhibition at 1000 µM.
Enquiry: Which inhibition at 1000 µM value is on record for CCCOC(=O)c1ccc(OC(=O)C2CCCc3c(NC(=N)N)cccc32)cc1 (stereo not shown) ?
Return: 45.7

Enquiry: Item: N#Cc1ccc(OC(=O)C2CCCc3c(NC(=N)N)cccc32)cc1 (stereo not shown)
Return: 44.2

Enquiry: Repeat for the following compound: N=C(N)Nc1ccc2c(c1)C(C(=O)Oc1cccc3c1CCCC3)CCC2 (stereo not shown)
Return: 44.8

More entries:
Enquiry: Please look up its inhibition at 1000 µM: N=C(N)Nc1cccc2c1CCCC2C(=O)Oc1ccc(Cl)cc1 (stereo not shown)
Return: 19
